Attribute: Percent Effect
System: Wolbachia pipientis
Assay: Anti-Wolbachia Cell-Based Screen
Type: functional
Set-up: scale not given: in the data most compounds retested in dose-response had high values
Conditions: 5 µM
Among all 48,000 compounds or so, about 13,000 (27%) showed an effect of 50% or more. The list shows a part of the results.
PROPERTY LABEL: Percent Effect (%)

| MOLECULE | PROPERTY LABEL | READOUT UNITS | QUANTITATIVE RESULT |
| --- | --- | --- | --- |
| CC(=O)N(Cc1ncc(C)o1)C1CCN(CCCc2cnn(C)c2)C1 (stereo not given) | Percent Effect | % | 5.261 |
| CCC(O)CN1CCN(C(=O)c2ccc(Cn3cccc3)cc2)CC1 (stereo not given) | Percent Effect | % | 90.26 |
| CC(=O)N(Cc1ncc(C)o1)C1CCN(Cc2sc(C)nc2C)C1 (stereo not given) | Percent Effect | % | 115.4 |
| CN(C)CC(=O)N1C[C@@H](Oc2ccccn2)[C@H]2OCCC[C@H]21 | Percent Effect | % | -36.21 |
| O=C(O)CC[C@@H]1CN(c2ccncc2)CC[C@@H]1N1CCOCC1 | Percent Effect | % | -3.387 |
| O=C(C[C@H]1[C@H]2CN(C(=O)Cc3ccccn3)C[C@@H]12)Nc1cccnc1 | Percent Effect | % | -5.449 |
| CC(C)c1noc(CS(=O)(=O)CC(=O)NCC(F)(F)F)n1 | Percent Effect | % | -6.707 |
| Cc1ccc(CN2CC[C@H](c3nnc(COc4ccc(F)cc4)o3)C2)o1 | Percent Effect | % | -1.742 |
| O=C(c1ccnnc1)N1C[C@@H](OCC2CCCC2)[C@H]2OCCC[C@H]21 | Percent Effect | % | -2.599 |
| CC(=O)N(Cc1ncc(C)o1)C1CCN(Cc2csc(C)n2)C1 (stereo not given) | Percent Effect | % | 123.5 |
| Cc1nc(CN(C)C2CCN(Cc3ccno3)C2)no1 (stereo not given) | Percent Effect | % | 0.1776 |
| Cc1cnc(CN(C)C2CCN(CC(=O)N(C)c3nccs3)C2)o1 (stereo not given) | Percent Effect | % | -8.119 |
| O=C(Cc1ccccn1)N1C[C@@H](Oc2cccnc2)[C@H]2OCCC[C@H]21 | Percent Effect | % | 93.72 |
| O=C(c1ccc(Oc2cccnc2)cc1)N1CCN(CCO)CC1 | Percent Effect | % | 6.053 |
| O=C(C1=CCCC1)N1C[C@H](Oc2cccnc2)[C@H]2OCCC[C@H]21 | Percent Effect | % | 9.91 |

* * *

System: Wolbachia pipientis
Assay: Anti-Wolbachia Cell-Based Screen
Format: functional
Parameters: scale not given: in the data most compounds retested in dose-response had high values
Conditions: 5 µM
Hit rate of the full screen: of about 48,000 compounds, about 13,000 (27%) showed an effect of 50% or more. This is one part of the list.
Attribute: Percent Effect
PROPERTY LABEL: Percent Effect (%)

| MOLECULE | READOUT UNITS | QUANTITATIVE RESULT |
| --- | --- | --- |
| Cc1cc(C)n(C2CCN(Cc3c(-c4cc(C)on4)nn(C)c3Cl)C2)n1 (configuration not stated) | % | 0.03188 |
| CS(=O)(=O)c1cccc(C(N)c2ccc(F)c(F)c2)c1.Cl (configuration not stated) | % | -2.394 |
| CC(C)CCN(c1cn[nH]c1)S(=O)(=O)c1cccc(C#N)c1 | % | -0.3515 |
| COCC(=O)N1CCC2(CC1)COc1ccccc1S(=O)(=O)N(C)C2 | % | 78.61 |
| CCN1CC2(CCNCC2)COc2ccccc2S1(=O)=O.O=C(O)C(F)(F)F | % | 12.77 |
| Cc1ccc(OC2(C(=O)O)CCN(C(=O)c3cc(C)oc3C)CC2)cn1 | % | -11.44 |
| COc1ccc(CN2CCO[C@H]3[C@H](OCc4ccncc4)CC[C@@H]32)cc1.O=C(O)C(F)(F)F.O=C(O)C(F)(F)F | % | 132.4 |
| CN(C)CC(=O)N1CCC2(CC1)COc1ccccc1S(=O)(=O)N(C)C2 | % | 75.94 |
| Cc1ccc(N2CCN(CC3CC3)C3(CCN(C(C)C)CC3)C2=O)cn1.O=C(O)C(F)(F)F | % | -1.753 |
| CCOCC(=O)N1CC(=O)Nc2cc(Br)ccc21 | % | -5.264 |
| CCn1cc(-c2cncn2CCc2ccc3c(c2)OCCO3)cn1.Cl | % | 128.2 |
| Cc1ccc(C(N)c2cccc(S(C)(=O)=O)c2)cc1 (configuration not stated) | % | 1.85 |
| Cc1cccc(CN2CCO[C@H]3[C@@H](OCc4ccncc4)CC[C@@H]32)n1.O=C(O)C(F)(F)F.O=C(O)C(F)(F)F.O=C(O)C(F)(F)F | % | 103.5 |
| COc1ccc(CN2CCO[C@H]3[C@H](Oc4ccccn4)CC[C@@H]32)cc1.O=C(O)C(F)(F)F.O=C(O)C(F)(F)F | % | -1.108 |
| CCN1CC2(CCN(C(=O)N(C)C)CC2)COc2ccccc2S1(=O)=O | % | 88.03 |
| COCCN1CCC2(CC1)COc1ccccc1S(=O)(=O)N(C)C2 | % | 110 |
| COc1ccc(C(=O)O)c(OCC(=O)NC(C)c2ccccc2)c1 (configuration not stated) | % | -11.95 |
| Cc1cc(C(=O)N2CCC3(CC2)C(=O)N(C)CCN3CC(C)C)c(C)o1.O=C(O)C(F)(F)F | % | 105.2 |
| CC(C)n1ncc2c1NC(=O)C(C#N)C21CCCCC1 (configuration not stated) | % | 14.23 |
| CCc1nc(C)c([C@H]2CN(C)C[C@@H]2C(=O)NCc2ccccc2OC)[nH]1 | % | -8.879 |
| Cc1cc(C(=O)N2CCC3(CC2)C(=O)NCCN3CC(C)C)c(C)o1 | % | 4.806 |
| Cc1ccc(C(NC(=O)C2CC2)c2cccc(S(C)(=O)=O)c2)cc1 (configuration not stated) | % | 85.76 |

* * *

Test system: Wolbachia pipientis
Assay: Anti-Wolbachia Cell-Based Screen
Format: functional
Parameters: scale not given: in the data most compounds retested in dose-response had high values
Conditions: 5 µM
The whole screen tested about 48,000 compounds, of which about 13,000 (27%) showed an effect of 50% or more. The list shows a part of the results.

| COMPOUND | Percent Effect |
| --- | --- |
| Nc1nc2c(c(N3CCC(CN4CCCC4=O)CC3)n1)CCNCC2 | -8.42% |
| O=C(Nc1cnn(CCN2CCOCC2)c1)c1ccccc1O | -9.189% |
| O=C(O)c1ccccc1-c1ccc(CN2CCOCC2)cn1 | 106.2% |
| Cc1cc2c(c(-c3cnccn3)c1)OC(CN)C2 (stereo unspecified) | -6.126% |
| Cc1ccc(Cl)cc1N1CCC(CNC(=O)CCn2ccnn2)C1 (stereo unspecified) | 3.758% |
| CSc1ccc(CN2CCC(CCC(=O)Nc3ccccc3)CC2)cc1 | 8.024% |

* * *

Attribute: Percent Effect
System: Wolbachia pipientis
Assay: Anti-Wolbachia Cell-Based Screen
Assay type: functional
Parameters: scale not given: in the data most compounds retested in dose-response had high values
Conditions: 5 µM
The campaign covered roughly 48,000 compounds. About 13,000 (27%) showed an effect of 50% or more. This is one part of the list.
PROPERTY LABEL: Percent Effect (%)

| COMPOUND | ASSAY SYSTEM | PROPERTY LABEL | QUANTITATIVE RESULT |
| --- | --- | --- | --- |
| COCC1CN(c2ccc(C)nn2)Cc2cnn(CC3CCOCC3)c21.O=C(O)C(F)(F)F.O=C(O)C(F)(F)F (stereo unspecified) | Wolbachia pipientis | Percent Effect | 113.1 |
| Cc1nc(Oc2ccccc2F)sc1C(=O)O | Wolbachia pipientis | Percent Effect | 91.89 |
| CN(C)c1cc(C2CCCN(C(=O)c3noc4c3CCCC4)C2)ccn1 (stereo unspecified) | Wolbachia pipientis | Percent Effect | 145.2 |
| Cc1nn(CC(C)C)c(N(C)C)c1CNCCS(C)(=O)=O | Wolbachia pipientis | Percent Effect | -9.669 |
| Cc1noc2ncc(C(=O)N3CCCC3c3ccncc3)cc12 (stereo unspecified) | Wolbachia pipientis | Percent Effect | 1.131 |
| CN(C)c1cc(C2CCCN2C(=O)c2noc3c2CCCC3)ccn1 (stereo unspecified) | Wolbachia pipientis | Percent Effect | 74.42 |
| CCCNC(=O)c1cc(Br)cc(S(=O)(=O)N2CCOCC2)c1F | Wolbachia pipientis | Percent Effect | -12.55 |
| COc1cccc(C(=O)N(C)C(C)c2c(C)n[nH]c2C)c1OC (stereo unspecified) | Wolbachia pipientis | Percent Effect | -15.68 |
| CCOCC1CN(S(=O)(=O)N(C)C)Cc2cnn(C)c21.O=C(O)C(F)(F)F (stereo unspecified) | Wolbachia pipientis | Percent Effect | -5.434 |
| CCn1cc2c(n1)C(COC)CN(c1ccc(C)nn1)C2.O=C(O)C(F)(F)F.O=C(O)C(F)(F)F (stereo unspecified) | Wolbachia pipientis | Percent Effect | 2.14 |
| CC1(C)CN(C(=O)c2cnc(-c3ccccn3)nc2)CC[C@]1(C)O | Wolbachia pipientis | Percent Effect | -14.16 |
| Cl.O=C1C(NCc2ccc3c(c2)CCO3)CCN1Cc1ccccc1 (stereo unspecified) | Wolbachia pipientis | Percent Effect | -4.636 |
| Cc1nc(-c2ccc(Cl)s2)sc1C(=O)O | Wolbachia pipientis | Percent Effect | 9.091 |
| O=C(c1noc2c1CCCC2)N1CCCC(c2nccs2)C1 (stereo unspecified) | Wolbachia pipientis | Percent Effect | 6.202 |
| CCOCC1CN(S(=O)(=O)N(C)C)Cc2cnn(CC)c21.O=C(O)C(F)(F)F (stereo unspecified) | Wolbachia pipientis | Percent Effect | -6.757 |
| Cc1ccc2cccc(Oc3nc(C)c(C(=O)O)s3)c2n1 | Wolbachia pipientis | Percent Effect | 111 |
